# System: Parainfluenza-3 virus
# METHOD_SUMMARY: organism not typed
# Format: cell-based
# EXPERIMENTAL_CONDITIONS: Vero
pEC50: −log10 of the molar value.
MEASUREMENT_KIND: pEC50

Some entries whose results are on file:
INSERT INTO measurements (molecule, measured) VALUES
  ('COc1cc(/C=C/C(=O)CC(=O)/C=C/c2ccc(O)c(OC)c2)ccc1O [Curcumin, reference compound]', '< 8.00'),
  ('COc1cc(/C=C/C(=O)CC(=O)/C=C/c2ccc(OCCOC(=O)CCC(NC(=O)c3ccc(NCc4cnc5nc(N)[nH]c(=O)c5n4)cc3)C(=O)O)c(OC)c2)ccc1O (stereo not drawn) [Compound 10]', '< 6.92');

Now look at this one.
Input: Input COc1cc(/C=C/C(=O)C(CCOC(=O)CCC(NC(=O)c2ccc(NCc3cnc4nc(N)[nH]c(=O)c4n3)cc2)C(=O)O)C(=O)/C=C/c2ccc(O)c(OC)c2)ccc1O (stereo not drawn) [Compound 8] , output reported pEC50.
Output: < 7.96

* * *

# Test system: MT-4 cells
# EXPERIMENTAL_CONDITIONS: MTT method, IIIB experiments P3.4401 and P3.4406
MEASUREMENT_KIND: CC50 (nM)
Give bare numbers, in nM.

Input: // fetch CC50 given entry COc1cc(/C=C/C(=O)CC(=O)/C=C/c2ccc(OCCOC(=O)CCC(NC(=O)c3ccc(NCc4cnc5nc(N)[nH]c(=O)c5n4)cc3)C(=O)O)c(OC)c2)ccc1O (stereo not shown) [Compound 10]
Output: 58

* * *

# Test system: MT-4 cells
# EXPERIMENTAL_CONDITIONS: MTT method, ROD experiments P3.4402 and P3.4407
MEASUREMENT_KIND: CC50

Worked cases, answers included:
INSERT INTO assay_data (compound, measured) VALUES
  ('COc1cc(/C=C/C(=O)CC(=O)/C=C/c2ccc(OC(=O)CCC(NC(=O)c3ccc(NCc4cnc5nc(N)[nH]c(=O)c5n4)cc3)C(=O)O)c(OC)c2)ccc1OC(=O)CCC(NC(=O)c1ccc(NCc2cnc3nc(N)[nH]c(=O)c3n2)cc1)C(=O)O (stereo not shown) [Compound 6]', '50 nM'),
  ('COc1cc(/C=C/C(=O)CC(=O)/C=C/c2ccc(OCCOC(=O)CCC(NC(=O)c3ccc(NCc4cnc5nc(N)[nH]c(=O)c5n4)cc3)C(=O)O)c(OC)c2)ccc1O (stereo not shown) [Compound 10]', '88 nM'),
  ('COc1cc(/C=C/C(=O)CC(=O)/C=C/c2ccc(OC(=O)[C@H](Cc3ccccc3)NC(=O)[C@@H](N)Cc3c[nH]c4ccccc34)c(OC)c2)ccc1OC(=O)[C@H](Cc1ccccc1)NC(=O)[C@@H](N)Cc1c[nH]c2ccccc12 [Compound 2]', '103 nM');

Could you now look at the following compound, please?
Input: Return the recorded CC50 value; entry: COc1cc(/C=C/C(=O)C(CCOC(=O)CCC(NC(=O)c2ccc(NCc3cnc4nc(N)[nH]c(=O)c4n3)cc2)C(=O)O)C(=O)/C=C/c2ccc(O)c(OC)c2)ccc1O (stereo not shown) [Compound 8]
Output: 62 nM
